read-out: Macrophage colony-stimulating factor (MCSF), CSF1 (gene 1435); assay: BSK_LPS_MCSF: BioMAP Diversity Plus: LPS Assay for Macrophage colony-stimulating factor (MCSF) Biomarker Activity (AID 2283083); conditions: primary human HUVEC with PBMC; actives raise or lower the signal
Active and inactive are the calls of the source. Rule for the calls: active = hit-call score of the fitted dose curve at least 0.9, where 1 is the maximum; inactive = score below 0.9.
Outcome field: choose from active, inactive

compound	label.value
COc1cccc(O)c1	inactive
N=C(N)c1ccc(OCCCCCOc2ccc(C(=N)N)cc2)cc1	active
CCCCCCCCCCCCOS(=O)(=O)O	inactive
CC(=O)Nc1ccc(O)cc1	inactive

Next:
What was the test verdict on O=C1NS(=O)(=O)c2ccccc21 ?
inactive
